test: Oral bioavailability in Sprague-Dawley rat at 25 mg/kg; type: ADME, organism-based; conditions: in vivo
experimental_endpoint: bioavailability (%)

smiles_notation=CC(C)(C)C[C@H]1N[C@@H](C(=O)NCCN2CCOCC2)[C@H](c2cccc(Cl)c2F)[C@@]12C(=O)Nc1cc(Cl)ccc12 observed=10
smiles_notation=CN1CCN(CCNC(=O)[C@@H]2N[C@H](CC(C)(C)C)[C@]3(C(=O)Nc4cc(Cl)ccc43)[C@H]2c2cccc(Cl)c2F)CC1 observed=31
smiles_notation=CC(C)(C)C[C@H]1N[C@@H](C(=O)NC[C@H](O)CO)[C@H](c2cccc(Cl)c2)[C@@]12C(=O)Nc1cc(Cl)c(F)cc12 observed=18
smiles_notation=CC(C)(C)C[C@H]1N[C@@H](C(=O)NCC[C@H](O)CO)[C@H](c2cccc(Cl)c2)[C@@]12C(=O)Nc1cc(Cl)ccc12 observed=19
smiles_notation=CC(C)(C)C[C@H]1N[C@@H](C(=O)NCC[C@H](O)CO)[C@H](c2cccc(Cl)c2)[C@@]12C(=O)Nc1cc(Cl)c(F)cc12 observed=65

I: CN1CCC(CCNC(=O)[C@@H]2N[C@H](CC(C)(C)C)[C@]3(C(=O)Nc4cc(Cl)ccc43)[C@H]2c2cccc(Cl)c2F)CC1
II: COCCOCCNC(=O)[C@@H]1N[C@H](CC(C)(C)C)[C@]2(C(=O)Nc3cc(Cl)ccc32)[C@H]1c1cccc(Cl)c1F
III: CC(C)(C)C[C@H]1N[C@@H](C(=O)NCC[C@@H](O)CO)[C@H](c2cccc(Cl)c2)[C@@]12C(=O)Nc1cc(Cl)c(F)cc12
Rank order required: bioavailability, descending. // format: requested-order list of labels III, I, II
(III: 31%, I: 14%, II: 5%)
